molecular target: D(3) dopamine receptor (Homo sapiens, UniProt P35462); assay: biochemical
Sequence (P35462 whole entry): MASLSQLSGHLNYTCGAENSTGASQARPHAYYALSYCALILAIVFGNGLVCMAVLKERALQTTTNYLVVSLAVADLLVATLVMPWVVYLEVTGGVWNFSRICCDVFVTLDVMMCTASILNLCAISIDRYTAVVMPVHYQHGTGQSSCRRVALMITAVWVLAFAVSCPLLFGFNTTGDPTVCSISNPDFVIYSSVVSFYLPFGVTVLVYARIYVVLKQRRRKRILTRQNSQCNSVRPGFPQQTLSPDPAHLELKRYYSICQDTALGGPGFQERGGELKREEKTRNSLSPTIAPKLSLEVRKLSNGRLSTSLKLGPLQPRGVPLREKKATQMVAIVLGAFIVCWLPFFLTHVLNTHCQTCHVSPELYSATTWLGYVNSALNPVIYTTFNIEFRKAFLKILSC
Description: Binding affinity towards human cloned dopamine (hD3) receptor expressed in CHO cells using [3H]spiperone as radioligand
Property Label: pKi
Numbers only, as −log10 of the molar value.

- Smiles: "Oc1cccc(N2CCN(Cc3ccccc3)CC2)c1"
  Property Label: "pKi"
  Test Result: 7.54

Each of the following entries comes with a recorded value; kindly state pKi for each.
1. CS(=O)(=O)Nc1cccc(OCCNCc2ccccc2)c1
2. Oc1cccc(OCCNCc2ccccc2)c1
3. CS(=O)(=O)Nc1cc(OCCNCc2cccs2)ccc1Cl

Result:
7.37
7.96
7.56

###

Can you tell me Ki for the items I'm about to list?
Target: D(4) dopamine receptor (Homo sapiens)
Sequence (P21917 whole entry): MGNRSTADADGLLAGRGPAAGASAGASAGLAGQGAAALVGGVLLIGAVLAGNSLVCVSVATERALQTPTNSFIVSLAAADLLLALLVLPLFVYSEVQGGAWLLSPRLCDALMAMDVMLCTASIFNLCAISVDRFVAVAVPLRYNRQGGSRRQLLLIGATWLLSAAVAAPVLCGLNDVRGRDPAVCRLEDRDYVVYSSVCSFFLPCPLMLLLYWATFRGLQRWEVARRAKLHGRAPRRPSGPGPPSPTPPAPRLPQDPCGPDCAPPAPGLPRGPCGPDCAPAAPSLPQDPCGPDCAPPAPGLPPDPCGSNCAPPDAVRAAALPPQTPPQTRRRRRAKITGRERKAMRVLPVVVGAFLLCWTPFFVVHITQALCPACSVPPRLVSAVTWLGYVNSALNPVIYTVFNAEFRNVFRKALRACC
Experiment: Binding affinity towards human cloned Dopamine receptor D4.4 expressed in CHO cells using [3H]spiperone as radioligand
Format: cell-based
Answers are plain numbers, in µM.

Please give Ki, item by item, for the list that follows.
1. Oc1ccc(N2CCN(Cc3ccccc3)CC2)cc1
2. c1ccc(CN2CCN(c3ccccc3)CC2)cc1

Result:
1: 0.0918; 2: 0.267

###

Read-out record for D(2) dopamine receptor (Homo sapiens, UniProt P14416): pKi
One number for each entry, as −log10 of the molar value.

- Smiles: "CS(=O)(=O)Nc1cc(OCCNCc2cccs2)ccc1Cl"
  Test Result: 8.05
- Smiles: "Oc1cccc(OCCNCc2ccccc2)c1"
  Test Result: 7.12
- Smiles: "CS(=O)(=O)Nc1cccc(OCCNCc2ccccc2)c1"
  Test Result: 7.42
- Smiles: "CS(=O)(=O)Nc1cc(OCCNCc2ccccc2)ccc1Cl"
  Test Result: 7.12

The record that follows has no pKi shown yet.
Quick note, pKi for "Oc1ccccc1OCCNCc1ccccc1" landed at 6.34

###

target: D(2) dopamine receptor (Rattus norvegicus)
Sequence (P61169 whole entry): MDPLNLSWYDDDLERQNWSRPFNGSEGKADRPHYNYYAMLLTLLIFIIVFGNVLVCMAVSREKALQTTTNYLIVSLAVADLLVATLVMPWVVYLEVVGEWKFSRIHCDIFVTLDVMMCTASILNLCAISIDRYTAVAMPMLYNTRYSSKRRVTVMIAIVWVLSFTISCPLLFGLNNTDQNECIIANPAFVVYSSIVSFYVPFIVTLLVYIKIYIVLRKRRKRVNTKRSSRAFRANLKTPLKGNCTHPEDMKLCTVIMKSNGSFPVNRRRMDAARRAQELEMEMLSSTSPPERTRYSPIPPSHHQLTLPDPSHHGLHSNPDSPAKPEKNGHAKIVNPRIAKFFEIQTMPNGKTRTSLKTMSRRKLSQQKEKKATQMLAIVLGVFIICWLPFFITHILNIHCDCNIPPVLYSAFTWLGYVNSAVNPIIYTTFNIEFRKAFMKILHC
pKi: −log10 of the molar value.
Decide using pKi: a value greater than or equal to 7 is Criterion met, a smaller one is Criterion not met.

- Smiles: "c1ccc(CNCCOc2ccccc2)cc1"
  Discrete Label: "Criterion not met"

Q: Textbook exercise: given the entry "CS(=O)(=O)Nc1cc(OCCNCc2cccs2)ccc1F" , state whether its pKi is greater than or equal to 7.
Result: Criterion met

Q: Does the reported pKi for "Oc1ccccc1OCCNCc1ccccc1" fall at or above the 7 mark?
Result: Criterion not met

###

molecular target: D(2) dopamine receptor (Rattus norvegicus)
# class assignment by measured Ki: lower level (below 8 nM), middle level (8 nM to below 60 nM), upper level (60 nM or more)

Q: Lab note: which band did "Oc1ccccc1N1CCN(Cc2ccccc2)CC1" land in?
Result: upper level

Q: Band assignment needed for "Oc1ccc(N2CCN(Cc3ccccc3)CC2)cc1" please.
Result: upper level

Q: Please report the category associated with "Oc1cccc(OCCNCc2ccccc2)c1" , nothing else.
Result: lower level

Q: Input "CS(=O)(=O)Nc1cc(OCCNCc2cccs2)ccc1F" ; output its category
Result: middle level

Q: Which Ki band matches "CS(=O)(=O)Nc1cc(OCCNCc2ccccc2)ccc1Cl" ?
Result: lower level
